MEASURED TARGET: purified human HDAC6 (Homo sapiens)
Construct: purchased BPS Bioscience 5006
Sequence (Q9UBN7 whole entry): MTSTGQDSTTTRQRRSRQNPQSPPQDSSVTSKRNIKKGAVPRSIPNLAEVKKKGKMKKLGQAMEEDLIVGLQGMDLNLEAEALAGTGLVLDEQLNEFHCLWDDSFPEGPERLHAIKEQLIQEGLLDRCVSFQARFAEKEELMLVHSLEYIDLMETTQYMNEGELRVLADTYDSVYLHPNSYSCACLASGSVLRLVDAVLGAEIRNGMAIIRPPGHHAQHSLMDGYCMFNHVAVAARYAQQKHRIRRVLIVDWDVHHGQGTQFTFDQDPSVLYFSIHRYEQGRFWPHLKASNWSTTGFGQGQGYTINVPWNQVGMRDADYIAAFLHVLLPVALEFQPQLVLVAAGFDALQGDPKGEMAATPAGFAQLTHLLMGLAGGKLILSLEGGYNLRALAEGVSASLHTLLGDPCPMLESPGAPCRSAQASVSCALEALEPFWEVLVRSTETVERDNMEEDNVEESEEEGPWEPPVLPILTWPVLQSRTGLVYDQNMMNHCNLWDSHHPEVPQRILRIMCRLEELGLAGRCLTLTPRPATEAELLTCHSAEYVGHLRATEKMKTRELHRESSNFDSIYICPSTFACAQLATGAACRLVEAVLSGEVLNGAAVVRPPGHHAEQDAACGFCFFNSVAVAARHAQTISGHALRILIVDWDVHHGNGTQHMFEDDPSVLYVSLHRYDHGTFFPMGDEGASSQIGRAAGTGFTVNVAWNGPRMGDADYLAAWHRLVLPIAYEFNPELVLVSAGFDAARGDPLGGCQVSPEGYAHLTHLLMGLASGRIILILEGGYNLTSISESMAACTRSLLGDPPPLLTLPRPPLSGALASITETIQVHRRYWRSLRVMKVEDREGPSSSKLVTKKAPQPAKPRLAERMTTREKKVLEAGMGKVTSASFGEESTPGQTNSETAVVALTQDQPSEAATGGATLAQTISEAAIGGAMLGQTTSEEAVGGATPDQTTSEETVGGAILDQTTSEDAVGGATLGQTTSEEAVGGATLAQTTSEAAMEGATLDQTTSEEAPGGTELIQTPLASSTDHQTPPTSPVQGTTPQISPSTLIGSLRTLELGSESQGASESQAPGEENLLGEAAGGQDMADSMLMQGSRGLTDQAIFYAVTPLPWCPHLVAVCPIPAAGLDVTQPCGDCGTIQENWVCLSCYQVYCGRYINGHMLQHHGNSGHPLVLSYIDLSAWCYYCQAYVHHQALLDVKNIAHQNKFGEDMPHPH
PROTOCOL NOTES: HDAC6 Enzyme Assay
Type: biochemical
MEASUREMENT CONDITIONS: purified human HDAC6, substrate Ac-Arg-Gly-Lys(Ac)-AMC, 1 hour at 30° C.; reported as bins
pIC50: −log10 of the molar value.
Consider the following molecules; for each one, report its pIC50.

Prompt: Quote pIC50 reported for CC(NC(=O)C1(C)CC1)c1ccc(C(=O)NO)cc1 (stereo not shown) [Compound I-154] please.
Response: > 7.00

Prompt: For the molecule O=C(NO)c1ccc([C@@H](NC(=O)c2cc3ccccc3s2)c2ccccc2)cc1 [Compound I-124] , give its measured pIC50 value.
Response: > 7.00

Prompt: Determine its reported pIC50: Cn1ccc(C(=O)NC(c2ccc(C(=O)NO)cc2)C(C)(C)C)n1 (stereo not shown) [Compound I-66]
Response: 6.30 to 7.00

Prompt: Give pIC50 for COc1ccc(C(=O)NC(C)c2cccc(C(=O)NO)c2)cc1 (stereo not shown) [Compound I-202]
Response: 6.30 to 7.00

Prompt: Tell me measured pIC50 for C[C@@H](NC(=O)NC12CC3CC(CC(C3)C1)C2)c1ccc(C(=O)NO)cc1 [Compound I-374] please.
Response: > 7.00

Prompt: For the molecule CC(C)[C@@H](NC(=O)NC(C)(C)C)c1ccc(C(=O)NO)cc1 [Compound I-368] , give its measured pIC50 value.
Response: 6.30 to 7.00

Prompt: Look up and state reported pIC50 for CC(C)[C@@H](NC(=O)c1cc(Cl)c(Cl)n1C)c1ccc(C(=O)NO)cc1 [Compound I-96]
Response: > 7.00

Prompt: Retrieve pIC50 measured for CC(NC(=O)c1cc2ccccc2o1)c1cccc(C(=O)NO)c1 (stereo not shown) [Compound I-401] and print it.
Response: 6.30 to 7.00

Prompt: # return recorded pIC50 for entry CC(NC(=O)Nc1ccc(OC(F)F)cc1)c1ccc(C(=O)NO)cc1 (stereo not shown) [Compound I-150]
Response: > 7.00

Prompt: For the molecule CC(C)[C@@H](NC(=O)C1(C)CCCCC1)c1ccc(C(=O)NO)cc1 [Compound I-126] , give its reported pIC50.
Response: 6.30 to 7.00

Prompt: Input CCC[C@@H](NC(=O)C(C)(C)C)c1ccc(C(=O)NO)cc1 [Compound I-365] , output reported pIC50.
Response: > 7.00

Prompt: Check the records and state pIC50 for Cc1cccc(NC(=O)NC(C)c2ccc(C(=O)NO)cc2)c1C (stereo not shown) [Compound I-175]
Response: > 7.00

Prompt: Quote pIC50 reported for CCC[C@@H](NC(=O)c1ccc(-c2ccccc2)cc1)c1ccc(C(=O)NO)cc1 [Compound I-274] please.
Response: > 7.00

Prompt: Supply recorded pIC50 for CC(NC(=O)Nc1ccccc1F)c1ccc(C(=O)NO)cc1 (stereo not shown) [Compound I-74] here.
Response: > 7.00

Prompt: Look up pIC50 of CC(C)[C@@H](NC(=O)N[C@@H](C)c1ccccc1)c1ccc(C(=O)NO)cc1 [Compound I-516] and report it.
Response: > 7.00

Prompt: // fetch pIC50 given entry CCCC(=O)NC(C)c1ccc(C(=O)NO)cc1 (stereo not shown) [Compound I-243]
Response: > 7.00

Prompt: Retrieve pIC50 measured for Cc1onc(-c2ccccc2)c1NC(=O)NC(C)c1ccc(C(=O)NO)cc1 (stereo not shown) [Compound I-305] and print it.
Response: 6.30 to 7.00

Prompt: Provide one value: measured pIC50 of C[C@@H](NCC1(C)CCCCC1)c1ccc(C(=O)NO)cc1 [Compound I-489]
Response: 6.30 to 7.00

Prompt: Write down pIC50 measured for item CC(C)[C@@H](NC(=O)NC12CC3CC(CC(C3)C1)C2)c1ccc(C(=O)NO)cc1 [Compound I-354]
Response: > 7.00

Prompt: In one line, give reported pIC50 of the entry Cn1ccc2cc(C(=O)NC(c3ccc(C(=O)NO)cc3)C(C)(C)C)ccc21 (stereo not shown) [Compound I-145] .
Response: > 7.00

Prompt: Tell me measured pIC50 for CC(NC(=O)NC(C)c1ccc(C(=O)NO)cc1)c1ccccc1 (stereo not shown) [Compound I-196] please.
Response: 6.30 to 7.00

Prompt: Give the value of pIC50 reported for the following: CC(C)(C)C(NC(=O)c1csc2ccccc12)c1ccc(C(=O)NO)cc1 (stereo not shown) [Compound I-158]
Response: 6.30 to 7.00

Prompt: Supply recorded pIC50 for CC(NC(=O)c1ccccc1Cl)c1ccc(C(=O)NO)cc1 (stereo not shown) [Compound I-269] here.
Response: > 7.00

Prompt: Look up and state reported pIC50 for CCc1ccc(NC(=O)NC(C)c2ccc(C(=O)NO)cc2)cc1 (stereo not shown) [Compound I-381]
Response: > 7.00

Prompt: Return pIC50 for the following molecule: CCC[C@@H](NC(=O)c1cc2oc(-c3ccccc3)cc2n1C)c1ccc(C(=O)NO)cc1 [Compound I-222]
Response: > 7.00

Prompt: Report pIC50, nothing else, for this molecule: CC(C)(C)C(NC(=O)c1ccc(-c2ccccc2)cc1)c1ccc(C(=O)NO)cc1 (stereo not shown) [Compound I-355]
Response: 6.30 to 7.00

Prompt: Provide only the value of recorded pIC50 for CC(NC(=O)c1ccc(-c2cnco2)cc1)c1ccc(C(=O)NO)cc1 (stereo not shown) [Compound I-138]
Response: > 7.00

Prompt: Entry CC(C)C(NC(=O)c1cccs1)c1ccc(C(=O)NO)cc1 (stereo not shown) [Compound I-112] needs its pIC50 filled in; supply it.
Response: > 7.00
